Catalogue of pKd values
Target: ecMutL (Escherichia coli (K12 in Fig. S2 legend), UniProt P23367 1-615)
Sequence (P23367 whole entry): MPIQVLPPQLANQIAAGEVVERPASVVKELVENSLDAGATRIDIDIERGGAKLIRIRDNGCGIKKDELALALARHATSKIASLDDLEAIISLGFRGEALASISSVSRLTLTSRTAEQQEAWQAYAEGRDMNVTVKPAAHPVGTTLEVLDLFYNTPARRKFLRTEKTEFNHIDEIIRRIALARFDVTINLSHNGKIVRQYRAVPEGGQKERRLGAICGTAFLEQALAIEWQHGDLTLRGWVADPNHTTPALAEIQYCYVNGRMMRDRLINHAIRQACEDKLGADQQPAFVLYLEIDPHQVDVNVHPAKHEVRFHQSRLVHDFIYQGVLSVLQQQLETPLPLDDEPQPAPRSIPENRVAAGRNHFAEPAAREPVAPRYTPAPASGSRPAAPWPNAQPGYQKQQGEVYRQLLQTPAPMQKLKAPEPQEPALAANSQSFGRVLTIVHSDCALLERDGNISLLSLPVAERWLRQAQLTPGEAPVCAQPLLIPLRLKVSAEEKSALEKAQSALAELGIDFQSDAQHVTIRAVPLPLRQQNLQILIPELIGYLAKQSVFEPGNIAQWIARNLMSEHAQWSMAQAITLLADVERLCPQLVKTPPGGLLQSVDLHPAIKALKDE
Assay: EMSA; ecMutS: 20 mM HEPES-KOH pH 7.9, 5 mM MgCl2, 120 mM KCl, 0.5 mg/mL BSA, 1 mM ADP, 37 C 15 min, 5 nM DNA; ecMutL/ngMutL: 20 mM HEPES pH 8.0, 100 mM KCl, 0.5 mg/mL BSA, 1 mM DTT, on ice 10 min, 20 nM DNA; gels in TAE at 4 C
Settings: protein: recombinant; tags: N-terminal His6; chain copies: 2; label: 5'-TAMRA; three stacked parallel intramolecular G4s
The meaning of pKd here: minus log10 of the concentration in molar units.

Below are worked cases with known answers.
{"columns": ["binder", "pKd"],
 "data": [
  ["G242,243A-5' (structured_DNA) DNA: GCCGCGGAAAGGAAGGGGAGGGGCTGGGAGGGCCCGGAGGGGGCTGGGCCGGAAACCCGGGAGGGGTCGGGACGGGGCGGGGTCCGCGCGGAGGAG", 6.96],
  ["G250A-5' (structured_DNA) DNA: GCCGCGGAAAGGAAGGGGAGGGGCTGGGAGGGCCCGGAGGGGGCTGGGCCGGGGACCCGGAAGGGGTCGGGACGGGGCGGGGTCCGCGCGGAGGAG", 6.89]
]}

Which value of pKd has been reported for G228A-5' (structured_DNA) DNA: GCCGCGGAAAGGAAGGGGAGGGGCTGGGAGGGCCCGGAAGGGGCTGGGCCGGGGACCCGGGAGGGGTCGGGACGGGGCGGGGTCCGCGCGGAGGAG in the records?
6.77

WT-5' (structured_DNA) DNA: GCCGCGGAAAGGAAGGGGAGGGGCTGGGAGGGCCCGGAGGGGGCTGGGCCGGGGACCCGGGAGGGGTCGGGACGGGGCGGGGTCCGCGCGGAGGAG ?
6.94
